Assay read-out Ki on Progesterone receptor (Homo sapiens, UniProt P06401); records merged from the literature.
readout_name: Ki (nM)

# annotated cases, reported Ki shown
[[record]]
molecule = "CNC(=O)NC(=O)C(C)(C)[C@@H]1c2ccc(-c3ccc(C(=O)N4CCOCC4)cc3)nc2Oc2c(F)cccc21"
test_result = 1170

[[record]]
molecule = "CC[C@H](C)n1cc(-c2ccc(C#N)cc2)c2ccc(NS(C)(=O)=O)cc21"
test_result = 0.32

[[record]]
molecule = "CC1=CC(C)(C)Nc2cc3c(cc21)-c1ccccc1C3=O"
test_result = 3550


(a) C[C@H]1c2c(cc(F)c(-c3cccc4c(Cl)c[nH]c34)c2F)NC(C)(C)[C@@H]1OC(=O)NCc1ccccc1 (racemic)
(b) CC1=CC(C)(C)Nc2cc3c(cc21)-c1ccc(Br)cc1C3O (stereo not drawn)
(c) CS(=O)(=O)Nc1cccc(C=C2c3ccccc3CCc3ccccc32)c1
I would appreciate it if you could sort these 3 molecules by Ki, starting from the smallest number. // rank by listing labels in the order requested c, a, b
(c: 99 nM, a: 160 nM, b: 1860 nM)

(1) COCOCc1cc(F)ccc1/C=C1\Oc2ccc(O)c(OC)c2-c2ccc3c(c21)C(C)=CC(C)(C)N3
(2) CC1=CC(C)(C)Nc2ccc3c(c21)Cc1c(F)cccc1-3
(3) CC1(C)Nc2ccc3c(c2C(C)(C)C1=O)C(c1ccc(Cl)cc1)Oc1ccccc1-3 (stereo not drawn)
Ascending sort, Ki. Could you list the labels in the order requested? 3, 2, 1

====

Several publications report pKi on Progesterone receptor (Homo sapiens, UniProt P06401); those values are gathered here.
study_system: Progesterone receptor (Homo sapiens, UniProt P06401)
Sequence (P06401 whole entry): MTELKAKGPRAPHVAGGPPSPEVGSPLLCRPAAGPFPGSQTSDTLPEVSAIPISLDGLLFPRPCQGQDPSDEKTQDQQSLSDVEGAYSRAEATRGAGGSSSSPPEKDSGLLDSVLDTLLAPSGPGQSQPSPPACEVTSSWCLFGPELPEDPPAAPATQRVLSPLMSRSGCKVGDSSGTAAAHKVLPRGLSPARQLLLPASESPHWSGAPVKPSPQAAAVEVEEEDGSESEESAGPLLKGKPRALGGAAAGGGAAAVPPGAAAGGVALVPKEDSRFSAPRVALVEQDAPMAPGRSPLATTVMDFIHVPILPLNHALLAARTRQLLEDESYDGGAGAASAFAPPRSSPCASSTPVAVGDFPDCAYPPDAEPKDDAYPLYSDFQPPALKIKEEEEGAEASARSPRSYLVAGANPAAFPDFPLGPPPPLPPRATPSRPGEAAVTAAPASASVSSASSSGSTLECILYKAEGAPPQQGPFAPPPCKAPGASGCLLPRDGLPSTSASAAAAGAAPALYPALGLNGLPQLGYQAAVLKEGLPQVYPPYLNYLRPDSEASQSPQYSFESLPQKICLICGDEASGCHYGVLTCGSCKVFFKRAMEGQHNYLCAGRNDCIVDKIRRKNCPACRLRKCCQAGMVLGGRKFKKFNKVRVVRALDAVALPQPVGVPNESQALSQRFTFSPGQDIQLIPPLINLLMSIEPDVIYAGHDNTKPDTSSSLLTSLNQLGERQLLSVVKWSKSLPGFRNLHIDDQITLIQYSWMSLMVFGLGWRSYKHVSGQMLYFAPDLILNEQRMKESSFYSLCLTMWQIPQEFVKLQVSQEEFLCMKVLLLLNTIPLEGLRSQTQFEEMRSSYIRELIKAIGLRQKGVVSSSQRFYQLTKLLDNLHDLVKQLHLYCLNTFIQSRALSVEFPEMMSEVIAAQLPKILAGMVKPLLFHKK
pKi: −log10 of the molar value.
readout_name: pKi

[[record]]
molecule = "CC1=CC(C)(C)Nc2ccc3c(c21)C(c1cc(F)cc(Br)c1)Oc1ccccc1-3 (stereo not given)"
test_result = 8.62


(I) C=C1C=C(C)CC(C)(C)C1Cc1cc(OC)c(Br)cc1OC(C)=O (stereo not given)
(II) N#Cc1ccc(C2=NN(S(=O)(=O)c3ccccc3F)CCCC2)cc1
(III) CC1=CC(C)(C)Nc2cc3c(cc21)-c1cc(F)c([N+](=O)[O-])cc1C3
Please list these molecules in decreasing order of pKi. Please list each label once, in the requested order. III, I, II
(III: 8.72, I: 7.22, II: 6.00)
